Below, each entry is listed with its recorded Neutralizing activity IC50.
- Target desc: T1, human [1-305]-mouse chimeric EL (human; mouse, UniProt Q9WVG5 306-500)
- T1 sequence: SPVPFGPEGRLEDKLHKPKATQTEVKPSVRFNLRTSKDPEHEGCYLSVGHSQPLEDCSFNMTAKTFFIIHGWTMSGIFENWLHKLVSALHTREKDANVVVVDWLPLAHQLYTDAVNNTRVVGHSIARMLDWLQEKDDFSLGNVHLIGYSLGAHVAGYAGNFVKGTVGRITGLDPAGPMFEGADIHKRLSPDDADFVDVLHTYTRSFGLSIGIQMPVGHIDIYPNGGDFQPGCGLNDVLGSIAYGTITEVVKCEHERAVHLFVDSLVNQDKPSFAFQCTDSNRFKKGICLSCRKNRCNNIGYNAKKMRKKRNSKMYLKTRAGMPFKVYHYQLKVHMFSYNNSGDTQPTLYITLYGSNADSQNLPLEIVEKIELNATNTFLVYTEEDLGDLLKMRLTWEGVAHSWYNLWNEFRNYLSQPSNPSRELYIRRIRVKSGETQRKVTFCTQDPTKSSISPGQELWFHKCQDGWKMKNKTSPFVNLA
- Procedure details: cell-based or functional assay
Number only, in nM; omit the unit.

These solved cases illustrate the format of a correct answer.
h13B3-S1 (antibody, V domains shown) VH: QVQLVQSGAEVKKPGASVKVSCKASGYTFTEYTMHWVRQAPGQGLEWMGSINPYYGGTSYNEKFKDRVTMTRDTSTSTVYMELSSLRSEDTAVYYCARYGNYVGYFDYWGQGTTVTVSS VL: EIVLTQSPGTLSLSPGERATLSCRASSSVHYMYWYQQKPGQAPRLLIYYTSNLAPGIPDRFSGSGSGTDFTLTISRLEPEDFAVYYCQQFTSSPYTFGGGTKVEIK; 3
h53A11-S3 (antibody, V domains shown) VH: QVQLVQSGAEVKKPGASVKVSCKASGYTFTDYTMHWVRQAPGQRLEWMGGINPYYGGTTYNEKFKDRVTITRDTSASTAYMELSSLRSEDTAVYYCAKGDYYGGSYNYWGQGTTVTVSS VL: EIVMTQSPATLSVSPGERATLSCRASQDISNSLHWYQQKPGQAPRLLIKYASQSISGIPARFSGSGSGTEFTLTISSLQSEDFAVYYCQQSNSWPYTFGQGTKLEIK; 1.8
h55A1-F2 (antibody, V domains shown, humanized) VH: QVQLVQSGAEVKKPGASVKVSCKASGYTFTNYGMNWVRQAPGQGLEWMGWINTYSGVPTYAGDFKGRVTMTTDTSTSTAYMELRSLRSDDTAVYYCARRGYYGRRYFDVWGKGTTVTVSS VL: EIVMTQSPATLSVSPGERATLSCKASQSVDYDVDSYMHWYQQKPGQAPRLLIYAASNLASGIPARFSGSGSGTEFTLTISSLQSEDFAVYYCQQTIEDPPTFGGGTKVEIK; 2.1
h13B3-S4 (antibody, V domains shown) VH: QVQLVQSGAEVKKPGASVKVSCKASGYTFTEYTMHWVRQAPGQGLEWMGSINPYYGGTSYNEKFKDRVTSTRDTSISTAYMELSRLRSDDTVVYYCARYGNYVGYFDYWGQGTTVTVSS VL: EIVLTQSPATLSLSPGERATLSCRASSSVHYMYWYQQKPGQAPRLLIYYTSNLAPGIPARFSGSGSGTDFTLTISSLEPEDFAVYYCQQFTSSPYTFGGGTKVEIK; 2.6
h55A1-F5 (antibody, V domains shown, humanized) VH: QVQLVQSGAEVKKPGASVKVSCKASGYTFTNYGMNWVRQAPGQGLEWMGWINTYSGVPTYAGDFKGRFTFTLDTSTSTAYMELSSLRSEDTAVYYCARRGYYGRRYFDVWGKGTTVTVSS VL: DIQLTQSPSSLSASVGDRVTITCKASQSVDYDVDSYMHWYQQKPGKAPKLLIYAASNLASGVPSRFSGSGSGTDFTLTISSLQPEDFATYYCQQTIEDPPTFGGGTKVEIK; 1.3
h16B3-F1 (antibody, V domains shown, humanized) VH: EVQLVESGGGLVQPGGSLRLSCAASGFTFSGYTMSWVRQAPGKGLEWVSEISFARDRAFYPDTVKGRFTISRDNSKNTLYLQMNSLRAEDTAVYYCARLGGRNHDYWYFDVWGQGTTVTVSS VL: DIQMTQSPSSLSASVGDRVTITCRASESVEYYGTSLMQWYQQKPGKAPKLLIYAASNVESGVPSRFSGSGSGTDFTLTISSLQPEDFATYYCQQSWKVPFTFGQGTKLEIK; 2.3
h16B3-S6 (antibody, V domains shown, humanized) VH: EVQLVESGGGLVQPGGSLRLSCAASGFTFSGYTMSWVRQAPGKGLEWVSEISFARDRAFYPDTVKGRFTISRDNSKNTLYLQMNSLRAEDTAVYYCARLGGKNRDFWYFDLWGQGTTVTVSS VL: DIVMTQSPDSLAVSLGERATINCRASESVEYYGTSLMQWYQQKPGQPPKLLIYAASNVESGVPDRFSGSGSGTDFTLTISSLQAEDVAVYYCQQSWRVPFTFGQGTKLEIK; 1
h55A1-F6 (antibody, V domains shown, humanized) VH: QVQLVQSGAEVKKPGASVKVSCKASGYTFTNYGMNWVRQAPGQGLEWMGWINTYSGVPTYAGDFKGRFTFTLDTSTSTAYMELSSLRSEDTAVYYCARRGYYGRRYFDVWGKGTTVTVSS VL: EIVMTQSPATLSVSPGERATLSCKASQSVDYDVDSYMHWYQQKPGQAPRLLIYAASNLASGIPARFSGSGSGTEFTLTISSLQSEDFAVYYCQQTIEDPPTFGGGTKVEIK; 2.3
h55A1-F3 (antibody, V domains shown, humanized) VH: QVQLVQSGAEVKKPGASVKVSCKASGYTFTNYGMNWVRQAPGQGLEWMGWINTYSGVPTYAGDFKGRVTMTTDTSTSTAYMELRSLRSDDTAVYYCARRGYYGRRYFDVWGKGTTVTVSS VL: DIQLTQSPSSLSASVGDRVTITCKASQSVDYDVDSYMHWYQQKPGKAPKLLIYAASNLASGVPSRFSGSGSGTDFTLTISSLQPEDFATYYCQQTIEDPPTFGGGTKVEIK; 1.1
h55A1-F1 (antibody, V domains shown, humanized) VH: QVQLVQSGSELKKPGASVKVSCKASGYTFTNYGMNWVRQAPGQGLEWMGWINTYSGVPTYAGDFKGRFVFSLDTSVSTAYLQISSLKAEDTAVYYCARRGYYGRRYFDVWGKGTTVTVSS VL: DIQLTQSPSSLSASVGDRVTITCKASQSVDYDVDSYMHWYQQKPGKAPKLLIYAASNLASGVPSRFSGSGSGTDFTFTISSLQPEDIATYYCQQTIEDPPTFGGGTKVEIK; 1.9

Consider the record given below.
# query: Neutralizing activity IC50 of entry h55A1-S2 (antibody, V domains shown, humanized) VH: QVQLVQSGSELKKPGASVKVSCKASGYTFTNYGLNWVRQAPGQGLEWMGWINTYSGVPTYAGDFKGRFVFSLDTSVSTAYLQISSLKAEDTAVYYCARRGYYGRRFFDVWGKGTTVTVSS VL: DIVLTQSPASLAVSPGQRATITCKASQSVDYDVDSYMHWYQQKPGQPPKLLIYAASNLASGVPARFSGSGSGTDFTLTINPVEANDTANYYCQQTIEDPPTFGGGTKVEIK
1.1
